Numbers sourced from PubChem BioAssay AID559.

So I've got a bunch of compounds here, and I need their inhibition values.
molecular target: DNA-directed RNA polymerase subunit beta (Escherichia coli (strain K12)); assay: bacterial RNA polymerase transcription inhibition – biochemical (AID 559);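 note: 0% = enzyme without compound and 100% = no enzyme blank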; conditions: E. coli RNA polymerase, fluorescence transcription assay; active compounds read high;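 tested at 10 µM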
In all, about 62,000 compounds went through this assay and about 100 (0.2%) were called active. The sample holds actives, similar compounds and a random draw of the others, so the mix is not that of the screen.
Answers are plain numbers, in %.

[[record]]
compound = "Cc1cccc(N2C(=O)SC(N(CC(=O)O)c3cccc(C)c3)C2=O)c1 (stereo not given)"
unit_text = "%"
data_value = 6.1

[[record]]
compound = "COC(=O)[C@H](Cc1ccccc1)NC(=O)Nc1ccc(S(N)(=O)=O)cc1"
unit_text = "%"
data_value = 10.2

[[record]]
compound = "Cc1noc(NS(=O)(=O)c2ccc(NC(=O)C34CCC(CC3)C4)cc2)c1C"
unit_text = "%"
data_value = 3.43


Would you be so kind as to report inhibition for each listed record?
1. Cc1ccccc1C(=O)Nc1cccc(-c2nnc(SCC(=O)O)n2C)c1
2. CCn1c(CSc2ncccn2)nnc1SCC(=O)N1c2ccccc2CC1C (stereo not given)

1: 12.2; 2: 4.54

Would you be so kind as to report inhibition for each listed record?
1. CCOc1ccc(C(C)C)cc1S(=O)(=O)n1nc(C)cc1C
2. CCOC(=O)c1c(CN2CCOCC2)n(-c2ccccc2)c2ccc(O)cc12
3. O=C(CN1C(=O)C2C3C=CC(C3)C2C1=O)NCC1COc2ccccc2O1 (stereo not given)
4. CN1CCc2c(sc3c2c(NCc2ccco2)nc2nnnn23)C1
5. Cc1ccc(C(=O)CSc2nc3ccccc3c(=O)n2N)o1

1. 5.62
2. 9.89
3. -8.67
4. -5.9
5. 4.54
